Parameter selectivity ratio: see the listing below.
# ASSAY COMMENT: Selectivity index, ratio of IC50 for African green monkey Vero cells to MIC for Mycobacterium tuberculosis H37RV ATCC 27294
# Type: toxicity, cell-based
# COND: read-out: Selectivity Index

As a guide, the following entries are already answered.
[
  {
    "SMILES STRUCTURE": "COc1ccc(N2C[C@H](COc3ccc(N4C[C@H](CNC(C)=O)OC4=O)cc3F)OC2=O)cc1",
    "MEASURED": 428
  },
  {
    "SMILES STRUCTURE": "CC(=O)NC[C@H]1CN(c2ccc(OC[C@H]3CN(c4ccccc4)C(=O)O3)c(F)c2)C(=O)O1",
    "MEASURED": 254
  },
  {
    "SMILES STRUCTURE": "CC(=O)NC[C@H]1CN(c2ccc(OC[C@@H]3CN(c4ccccc4)C(=O)O3)c(F)c2)C(=O)O1",
    "MEASURED": "> 40000"
  }
]

Let us examine a further case.
Lab book: selectivity ratio of COc1ccc(N2C[C@@H](COc3ccc(N4C[C@H](CNC(C)=O)OC4=O)cc3F)OC2=O)cc1 noted as 152

====

Items are presented alongside their recorded solubility.
# ASSAY COMMENT: Aqueous solubility of the compound by HPLC analysis
# Type: physicochemical
Dear colleague, please return just the value in µM, with no unit written.

Below are worked cases with known answers.
[
  {
    "SMILES STRUCTURE": "CC(=O)NC[C@H]1CN(c2ccc(OC[C@@H](O)CNc3cccnc3)c(F)c2)C(=O)O1",
    "solubility, µM": 3040
  },
  {
    "SMILES STRUCTURE": "CC(=O)NC[C@H]1CN(c2ccc(OC[C@@H](O)CNCCC(C)C)c(F)c2)C(=O)O1",
    "solubility, µM": 385
  },
  {
    "SMILES STRUCTURE": "CC(=O)NC[C@H]1CN(c2ccc(OC[C@H](O)CNc3cc(C(F)(F)F)cc(C(F)(F)F)c3)c(F)c2)C(=O)O1",
    "solubility, µM": 22
  },
  {
    "SMILES STRUCTURE": "CC(=O)NC[C@H]1CN(c2ccc(OC[C@H]3CN(c4ccccc4)C(=O)O3)c(F)c2)C(=O)O1",
    "solubility, µM": 164
  },
  {
    "SMILES STRUCTURE": "CC(=O)NC[C@H]1CN(c2ccc(OC[C@@H]3CN(c4ccccc4)C(=O)O3)c(F)c2)C(=O)O1",
    "solubility, µM": 14
  },
  {
    "SMILES STRUCTURE": "COc1ccc(NC[C@@H](O)COc2ccc(N3C[C@H](CNC(C)=O)OC3=O)cc2F)cc1",
    "solubility, µM": 1.3
  },
  {
    "SMILES STRUCTURE": "CC(=O)NC[C@H]1CN(c2ccc(OC[C@H](O)CNC3CC3)c(F)c2)C(=O)O1",
    "solubility, µM": 2200
  },
  {
    "SMILES STRUCTURE": "CC(=O)NC[C@H]1CN(c2ccc(OC[C@@H](O)CNc3ccccc3)c(F)c2)C(=O)O1",
    "solubility, µM": 124
  }
]

// field: solubility; key: COc1ccc(NC[C@H](O)COc2ccc(N3C[C@H](CNC(C)=O)OC3=O)cc2F)cc1 ; value = 56

solubility recorded for this molecule, CC(=O)NC[C@H]1CN(c2ccc(OC[C@H](O)CNCCC(C)C)c(F)c2)C(=O)O1 , is 7280

In plain terms, CC(=O)NC[C@H]1CN(c2ccc(OC[C@@H](O)CNc3ccccn3)c(F)c2)C(=O)O1 has a documented solubility of 22200

Input CC(=O)NC[C@H]1CN(c2ccc(OC[C@H](O)CNc3cccnc3)c(F)c2)C(=O)O1 . Output solubility: 10100

Quick note, solubility for CC(=O)NC[C@H]1CN(c2ccc(OC[C@@H]3CN(c4ccc(N5C[C@H](CNC(C)=O)OC5=O)cc4F)C(=O)O3)c(F)c2)C(=O)O1 landed at 333

// field: solubility; key: CC(=O)NC[C@H]1CN(c2ccc(OC[C@H](O)CNc3ccccn3)c(F)c2)C(=O)O1 ; value = 35100

solubility measured on CC(=O)NC[C@H]1CN(c2ccc(OC[C@@H](O)CNc3ccncc3)c(F)c2)C(=O)O1 = 17700

Please fill in: solubility reported for CC(=O)NC[C@H]1CN(c2ccc(OC[C@@H](O)CNC3CC3)c(F)c2)C(=O)O1 = 96000

molecule CC(=O)NC[C@H]1CN(c2ccc(OC[C@H](O)CNc3ccccc3)c(F)c2)C(=O)O1 , solubility observed: 296

Record CC(=O)NC[C@H]1CN(c2ccc(OC[C@@H](O)CNc3ccc(C#N)cc3)c(F)c2)C(=O)O1 . Reported solubility: 47

The molecule listed as COc1ccc(N2C[C@H](COc3ccc(N4C[C@H](CNC(C)=O)OC4=O)cc3F)OC2=O)cc1 has a reported solubility of 211

// solubility lookup, molecule = CC(=O)NC[C@H]1CN(c2ccc(NC[C@H](O)COc3ccc(N4C[C@H](CNC(C)=O)OC4=O)cc3F)c(F)c2)C(=O)O1 , result: 81

# molecule COc1ccc(N2C[C@@H](COc3ccc(N4C[C@H](CNC(C)=O)OC4=O)cc3F)OC2=O)cc1 ; its solubility = 132
